These measurements were taken from ChEMBL document CHEMBL4732075.

# system name: Glycogen synthase kinase-3 beta (Homo sapiens, UniProt P49841)
# Sequence (P49841 whole entry): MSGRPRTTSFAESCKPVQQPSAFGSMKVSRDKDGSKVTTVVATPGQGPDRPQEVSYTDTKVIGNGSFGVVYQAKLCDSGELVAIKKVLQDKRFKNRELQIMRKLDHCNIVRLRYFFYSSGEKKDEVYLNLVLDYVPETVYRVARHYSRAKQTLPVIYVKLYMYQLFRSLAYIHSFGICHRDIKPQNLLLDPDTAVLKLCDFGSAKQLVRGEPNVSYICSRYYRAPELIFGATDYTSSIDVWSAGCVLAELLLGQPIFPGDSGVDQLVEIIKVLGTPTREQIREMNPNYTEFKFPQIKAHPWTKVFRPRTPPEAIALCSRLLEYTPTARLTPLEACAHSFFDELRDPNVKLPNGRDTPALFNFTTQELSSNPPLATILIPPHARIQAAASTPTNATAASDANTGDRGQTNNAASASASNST
# assay text: Inhibition of N-terminal His6-tagged recombinant human GSK3beta H350L mutant expressed in baculovirus infected Sf21 cells using GSM as substrate incubated for 30 mins in presence of ATP by Kinase-Glo luminescent assay
IC50 listing for selected compounds.
quantity measured: IC50 (nM)

compound	u	result
CNC(=O)c1sc(-c2ccnc(NC(=O)C3CC3)c2)nc1OCCOCCOCCn1cc(COc2cccc3c2C(=O)N(C2CCC(=O)NC2=O)C3=O)nn1 (centres undefined)	nM	46.9
CNC(=O)c1sc(-c2ccnc(NC(=O)C3CC3)c2)nc1OCCCCCCCCn1cc(COc2cccc3c2C(=O)N(C2CCC(=O)NC2=O)C3=O)nn1 (centres undefined)	nM	83.1
CNC(=O)c1sc(-c2ccnc(NC(=O)C3CC3)c2)nc1OCCCCCCCCCCCCOc1cccc2c1C(=O)N(C1CCC(=O)NC1=O)C2=O (centres undefined)	nM	98
CNC(=O)c1sc(-c2ccnc(NC(=O)C3CC3)c2)nc1OCCOCCOCCOCCOCCOc1cccc2c1C(=O)N(C1CCC(=O)NC1=O)C2=O (centres undefined)	nM	69.3

====

# system name: Glycogen synthase kinase-3 beta (Homo sapiens)
# assay text: Inhibition of N-terminal His6-tagged recombinant human GSK3beta H350L mutant expressed in baculovirus infected Sf21 cells using GSM as substrate incubated for 30 mins in presence of ATP by Kinase-Glo luminescent assay
Response field label takes 1 (yes) when IC50 is strictly below 100 nM and 0 (no) in all other cases.

compound	system name	class
CNC(=O)c1sc(-c2ccnc(NC(=O)C3CC3)c2)nc1OCCCCCCOc1cccc2c1C(=O)N(C1CCC(=O)NC1=O)C2=O (configuration not stated)	Glycogen synthase kinase-3 beta (Homo sapiens)	1 (yes)
CNC(=O)c1sc(-c2ccnc(NC(=O)C3CC3)c2)nc1OCCOCCOCCOc1cccc2c1C(=O)N(C1CCC(=O)NC1=O)C2=O (configuration not stated)	Glycogen synthase kinase-3 beta (Homo sapiens)	0 (no)
COc1nc(-c2ccnc(NC(=O)C3CC3)c2)sc1C(=O)NCCCCCCNC(=O)COc1cccc2c1C(=O)N(C1CCC(=O)NC1=O)C2=O (configuration not stated)	Glycogen synthase kinase-3 beta (Homo sapiens)	0 (no)
CNC(=O)c1sc(-c2ccnc(NC(=O)C3CC3)c2)nc1OCCOCC#Cc1cccc2c1CN(C1CCC(=O)NC1=O)C2=O (configuration not stated)	Glycogen synthase kinase-3 beta (Homo sapiens)	1 (yes)
CNC(=O)c1sc(-c2ccnc(NC(=O)C3CC3)c2)nc1OCCOCCOCCOCCn1cc(COc2cccc3c2C(=O)N(C2CCC(=O)NC2=O)C3=O)nn1 (configuration not stated)	Glycogen synthase kinase-3 beta (Homo sapiens)	1 (yes)
NC(=O)c1sc(-c2ccnc(NC(=O)C3CC3)c2)nc1OCCOCC#Cc1cccc2c1CN(C1CCC(=O)NC1=O)C2=O (configuration not stated)	Glycogen synthase kinase-3 beta (Homo sapiens)	1 (yes)
CNC(=O)c1sc(-c2ccnc(NC(=O)C3CC3)c2)nc1OCCCC#Cc1cccc2c1CN(C1CCC(=O)NC1=O)C2=O (configuration not stated)	Glycogen synthase kinase-3 beta (Homo sapiens)	0 (no)

====

# system name: Protein cereblon/Glycogen synthase kinase-3 beta (Rattus norvegicus) (UniProt P18266+Q56AP7)
# Sequence (P18266 whole entry, looked up): as the sequence (P49841 whole entry) above, with V240M, T390P, T392A, A400T, T402A counted along it
# Sequence (Q56AP7 whole entry, looked up): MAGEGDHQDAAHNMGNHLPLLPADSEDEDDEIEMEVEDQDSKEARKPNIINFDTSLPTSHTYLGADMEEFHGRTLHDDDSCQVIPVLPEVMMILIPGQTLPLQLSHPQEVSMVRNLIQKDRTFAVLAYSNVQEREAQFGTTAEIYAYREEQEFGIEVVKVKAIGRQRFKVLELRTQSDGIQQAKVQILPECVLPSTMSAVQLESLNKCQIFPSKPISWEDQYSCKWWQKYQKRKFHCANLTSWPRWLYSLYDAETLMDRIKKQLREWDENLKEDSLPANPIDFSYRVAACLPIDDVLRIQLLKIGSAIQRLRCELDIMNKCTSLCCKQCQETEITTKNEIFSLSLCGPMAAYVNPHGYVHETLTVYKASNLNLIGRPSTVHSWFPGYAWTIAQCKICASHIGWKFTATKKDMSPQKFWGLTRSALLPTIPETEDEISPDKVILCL
# assay text: Protac activity at CRBN/GSK3beta in rat PC12 cells assessed as GSK3beta degradation by measuring GSK3beta protein level at 10 uM after 10 hrs by Western blotting analysis
# Type: cell-based
# applied conditions: PC-12
Category scheme (GSK3beta protein level remaining): class 0: < 70%; class 1: ≥ 70% and < 90%; class 2: ≥ 90%

compound	class
CNC(=O)c1sc(-c2ccnc(NC(=O)C3CC3)c2)nc1OCCCCCCCCn1cc(COc2cccc3c2C(=O)N(C2CCC(=O)NC2=O)C3=O)nn1 (configuration not stated)	class 0
NC(=O)c1sc(-c2ccnc(NC(=O)C3CC3)c2)nc1OCCOCC#Cc1cccc2c1CN(C1CCC(=O)NC1=O)C2=O (configuration not stated)	class 1
CNC(=O)c1sc(-c2ccnc(NC(=O)C3CC3)c2)nc1OCCCCCCCCCCOc1cccc2c1C(=O)N(C1CCC(=O)NC1=O)C2=O (configuration not stated)	class 1
CNC(=O)c1sc(-c2ccnc(NC(=O)C3CC3)c2)nc1OCCCC#Cc1ccc2c(c1)C(=O)N(C1CCC(=O)NC1=O)C2=O (configuration not stated)	class 2
CNC(=O)c1sc(-c2ccnc(NC(=O)C3CC3)c2)nc1OCCCC#Cc1cccc2c1CN(C1CCC(=O)NC1=O)C2=O (configuration not stated)	class 1
CNC(=O)c1sc(-c2ccnc(NC(=O)C3CC3)c2)nc1OCCOCCOCCOCCOCCOc1cccc2c1C(=O)N(C1CCC(=O)NC1=O)C2=O (configuration not stated)	class 2
NC(=O)c1sc(-c2ccnc(NC(=O)C3CC3)c2)nc1O	class 2
CNC(=O)c1sc(-c2ccnc(NC(=O)C3CC3)c2)nc1OCCOCCOCCOCCn1cc(COc2cccc3c2C(=O)N(C2CCC(=O)NC2=O)C3=O)nn1 (configuration not stated)	class 0
CNC(=O)c1sc(-c2ccnc(NC(=O)C3CC3)c2)nc1OCCOCCOCCn1cc(COc2cccc3c2C(=O)N(C2CCC(=O)NC2=O)C3=O)nn1 (configuration not stated)	class 0
Nc1cccc2c1C(=O)N(C1CCC(=O)NC1=O)C2=O (configuration not stated)	class 2
CNC(=O)c1sc(-c2ccnc(NC(=O)C3CC3)c2)nc1OCCCCCCCCCCCCOc1cccc2c1C(=O)N(C1CCC(=O)NC1=O)C2=O (configuration not stated)	class 0
CNC(=O)c1sc(-c2ccnc(NC(=O)C3CC3)c2)nc1OCCOCCOCCOc1cccc2c1C(=O)N(C1CCC(=O)NC1=O)C2=O (configuration not stated)	class 2
NC(=O)c1sc(-c2ccnc(NC(=O)C3CC3)c2)nc1OCCOCC#Cc1ccc2c(c1)C(=O)N(C1CCC(=O)NC1=O)C2=O (configuration not stated)	class 1
CNC(=O)c1sc(-c2ccnc(NC(=O)C3CC3)c2)nc1OCCCCCCCCOc1cccc2c1C(=O)N(C1CCC(=O)NC1=O)C2=O (configuration not stated)	class 2
